Target: ABHD6 (Mus musculus, UniProt Q8R2Y0)
Construct: Proteomes (mouse brain membrane fraction or cell lysates); from tissue; host or cells: mouse brain membrane fraction (or unspecified cell lysates)
Sequence (Q8R2Y0 1-336): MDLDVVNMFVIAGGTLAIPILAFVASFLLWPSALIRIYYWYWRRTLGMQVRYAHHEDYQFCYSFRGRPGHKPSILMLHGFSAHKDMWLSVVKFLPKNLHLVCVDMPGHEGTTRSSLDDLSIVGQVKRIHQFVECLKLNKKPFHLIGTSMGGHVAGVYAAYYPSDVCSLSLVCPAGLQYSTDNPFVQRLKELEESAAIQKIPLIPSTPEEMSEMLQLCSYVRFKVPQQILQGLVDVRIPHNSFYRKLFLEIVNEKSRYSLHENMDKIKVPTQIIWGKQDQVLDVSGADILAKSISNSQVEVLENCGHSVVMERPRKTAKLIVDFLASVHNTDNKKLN
Assay: In vitro competitive activity-based protein profiling (mouse), ABHD6
Assay type: biochemical
Conditions: 1 μM, mouse proteome, in vitro; read-out: % Inhibition at 1 μM ABHD6
Assay metric: inhibition at 1 µM

Entry O=C(OC(C(F)(F)F)C(F)(F)F)N1CCN(Cc2ccc(C(F)(F)F)cc2N2CCC(CO)CC2)CC1 — recorded inhibition at 1 µM = < 25%

Kindly note the recorded inhibition at 1 µM for O=C(OC(C(F)(F)F)C(F)(F)F)N1CCN(Cc2ccc(Cl)cc2N2CC[C@@H](N3CCCC3=O)C2)CC1 , which is 25 to 75%

For reference, reported inhibition at 1 µM for O=C(O)C1CCN(c2cc(Cl)ccc2CN2CCN(C(=O)OC(C(F)(F)F)C(F)(F)F)CC2)CC1 stands at < 25%

Kindly note the recorded inhibition at 1 µM for O=C(O)[C@@H]1CCCN1c1cc(CN2CCN(C(=O)OC(C(F)(F)F)C(F)(F)F)CC2)ccc1C(F)(F)F , which is > 75%

compound O=C(OC(C(F)(F)F)C(F)(F)F)N1CCN(Cc2ccc(Cl)cc2N2CC[C@H](CF)C2)CC1 , inhibition at 1 µM observed: < 25%

Note to self: inhibition at 1 µM recorded for O=C(OC(C(F)(F)F)C(F)(F)F)N1CCN(Cc2ccc(Cl)cc2N2CC[C@@H](N3CCCCC3=O)C2)CC1 was < 25%

# compound O=C(OC(C(F)(F)F)C(F)(F)F)N1CCN(Cc2cccc(Cl)c2N2CC[C@H](CF)C2)CC1 ; its inhibition at 1 µM = < 25%
